Listing of recorded pKd by entry.
SYSTEM NAME: T1, AIM2FL (Homo sapiens, UniProt O14862 1-343)
T1 sequence: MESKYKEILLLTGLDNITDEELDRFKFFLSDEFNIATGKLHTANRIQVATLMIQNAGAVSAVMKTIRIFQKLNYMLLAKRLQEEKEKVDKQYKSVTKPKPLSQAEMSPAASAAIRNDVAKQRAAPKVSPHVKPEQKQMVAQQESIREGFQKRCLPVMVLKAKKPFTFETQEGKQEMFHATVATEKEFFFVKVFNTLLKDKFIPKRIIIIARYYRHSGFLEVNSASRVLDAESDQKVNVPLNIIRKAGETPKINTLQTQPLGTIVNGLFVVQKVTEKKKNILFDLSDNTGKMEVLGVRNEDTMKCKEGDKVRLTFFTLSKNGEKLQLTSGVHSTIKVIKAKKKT
EXPERIMENT SUMMARY: fluorescence anisotropy; 160 mM KCl; 60 mM KCl for IFI16HinAB; FAM probe 3-6 nM (FA) or 20 nM (EMSA); binding buffer pH and temperature not in the material
CONDITION DETAILS: protein: recombinant
The scale used: pKd is minus the common logarithm of the concentration in molar units.

BINDER	pKd
60-base ssDNA_T (ssDNA) DNA: TTTCTTTCTTTCTTTCTTTCTTTCTTTCTTTCTTTCTTTCTTTCTTTCTTTCTTTCTTTC	6.49
60-bp dsRNA (dsRNA) RNA 1: UAAGACACGAUGCGAUAAAAUCUGUUUGUAAAAUUUAUUAAGGGUACAAAUUGCCCUAGC RNA 2: GCUAGGGCAAUUUGUACCCUUAAUAAAUUUUACAAACAGAUUUUAUCGCAUCGUGUCUUA	7.30
60-base ssDNA_A (ssDNA) DNA: AAAGAAAGAAAGAAAGAAAGAAAGAAAGAAAGAAAGAAAGAAAGAAAGAAAGAAAGAAAG	6.82
60-base ssRNA_U (ssRNA) RNA: UUUCUUUCUUUCUUUCUUUCUUUCUUUCUUUCUUUCUUUCUUUCUUUCUUUCUUUCUUUC	7.10
60-bp DNA:RNA hybrid (DNA:RNA) DNA: TAAGACACGATGCGATAAAATCTGTTTGTAAAATTTATTAAGGGTACAAATTGCCCTAGC RNA: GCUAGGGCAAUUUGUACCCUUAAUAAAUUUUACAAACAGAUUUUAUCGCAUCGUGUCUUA	7.40

Data request, read-out pKd, for 60-base ssRNA_A (ssRNA) RNA: AAAGAAAGAAAGAAAGAAAGAAAGAAAGAAAGAAAGAAAGAAAGAAAGAAAGAAAGAAAG
6.40

The reported numbers originate from paper PMC10085679.
